- Measurement protocol: modulators of CIT2-GFP expression in yeast, confirmation, S. cerevisiae, GFP fusion, cherry picks, mother/daughter gates (AID 2274)
- Experimental parameters: S. cerevisiae CIT2-GFP strain, flow cytometry, 3 h; at 10 µM; hits give high values
Below, each of the molecules is paired with its reported GFP response, % of DMSO value.
Return type: number; implicit unit %.

1. CCCc1ccc(C(=O)N2CCN(c3ccccc3OCC)CC2)cc1; 96.4
2. CCC(C)(C)NC(=O)C(c1cccs1)N(CC1CCCO1)C(=O)Cn1nnc2ccccc21 (centres undefined); 101
3. CNC(=O)/C(C#N)=C/c1c(N2CC(C)OC(C)C2)nc2ccccn2c1=O (centres undefined); 98.8

From here, focus on the item given below.
Consider the molecule shown here: Oc1c(C(Nc2nc3ccccc3s2)c2ccco2)ccc2cccnc12 (centres undefined) What is its recorded GFP response, % of DMSO?
100
